Tested on: MDA-MB-468 breast
Test: NCI tumour cell line growth inhibition, 48 h; in the data active = GI50 below about 0.43 µM; inactive = the rest
Hello, when you answer, please use one of the following outcomes: 1 (yes) for active, 0 (no) for inactive

Recorded results for 4 compounds are shown here.
>  <Smiles Entry>
COc1cc(C(=O)OCCCCCCCCCCC[P+](c2ccccc2)(c2ccccc2)c2ccccc2)ccc1O

>  <Assay System>
MDA-MB-468 breast

>  <Class>
1 (yes)

$$$$
>  <Smiles Entry>
Cn1cc(-c2cc3nc(-c4c[nH]c5ccc(Br)cc45)cc(N)n3n2)c2ccccc21

>  <Assay System>
MDA-MB-468 breast

>  <Class>
0 (no)

$$$$
>  <Smiles Entry>
Cc1ccccc1NC(=S)Nc1ccccn1

>  <Assay System>
MDA-MB-468 breast

>  <Class>
0 (no)

$$$$
>  <Smiles Entry>
C=C1C(=O)O[C@H]2[C@H]1CC/C(CNC(=O)/C=C/c1ccc(Br)cc1)=C\CC[C@@]1(C)O[C@@H]21

>  <Assay System>
MDA-MB-468 breast

>  <Class>
1 (yes)

$$$$

Write down the call the test reported for this compound. Item: `O=[N+]([O-])c1ccc(Nc2ccccc2-c2ccccc2)c2nonc12`
0 (no)
